Hello, the source for this data is patent US20070179060A1, in case you need it.

- Tested on: wheat (Triticum aestivum)
- assay_comment: Postemergence herbicidal activity in cereal crops
- Type: in vivo
- assay_context: Triticum aestivum, post-emergence, 480 h; crop, post-emergent, 17.5 g ai/ha, after 20-22 days; read-out: % Control TRZAS
Task for the reader: assign each of the following compounds its reported plant injury at 17.5 g/ha.
API: value field is a number in %; no unit string.

The recorded plant injury at 17.5 g/ha for COc1c(Cl)cc(F)c(-c2cc(N)c(Cl)c(C(=O)O)n2)c1F [Compound 133] is 0

The recorded plant injury at 17.5 g/ha for COC(=O)c1nc(-c2ccc(C(F)(F)F)c(OC)c2F)cc(N)c1Cl [Compound 45] is 0

The recorded plant injury at 17.5 g/ha for COC(=O)c1nc(-c2c(F)cc(Cl)c(OC)c2F)cc(N)c1Cl [Compound 58] is 0

The recorded plant injury at 17.5 g/ha for COC(=O)c1nc(-c2ccc(Br)c(OC)c2F)cc(N)c1Cl [Compound 27] is 5

The recorded plant injury at 17.5 g/ha for COC(=O)c1nc(-c2ccc(Cl)c(N(C)C)c2F)cc(N)c1Cl [Compound 16] is 10

The recorded plant injury at 17.5 g/ha for CCCCOC(=O)c1nc(-c2ccc(Cl)c(C(C)F)c2F)cc(N)c1Cl (centres unmarked) [Compound 91] is 20

The recorded plant injury at 17.5 g/ha for COC(=O)c1nc(-c2ccc(C(F)F)c(OC)c2F)cc(N)c1Cl [Compound 71] is 0

The recorded plant injury at 17.5 g/ha for COc1c(Br)ccc(-c2cc(N)c(Cl)c(C(=O)O)n2)c1F [Compound 120] is 0

* * *

- Test system: redroot pigweed (Amaranthus retroflexus)
- assay_comment: Postemergence herbicidal activity
- Format: in vivo
- assay_context: Amaranthus retroflexus, post-emergence, 336 h, post-emergent, 140 g ai/ha, after 14 days; read-out: % Control AMARE
reported_metric: pest or weed control at 140 g/ha (%)
API: value field is a number in %; no unit string.

The recorded pest or weed control at 140 g/ha for `COC(=O)c1nc(-c2c(F)cc(C#N)c(OC)c2F)cc(N)c1Cl` is 85

The recorded pest or weed control at 140 g/ha for `COC(=O)c1nc(-c2ccc(Cl)c(S(C)(=O)=O)c2F)cc(N)c1Cl` is 75

The recorded pest or weed control at 140 g/ha for `COC(=O)c1nc(-c2c(F)cc(Cl)c(C(F)F)c2F)cc(N)c1Cl` is 100

The recorded pest or weed control at 140 g/ha for `COC(=O)c1nc(-c2ccc(Cl)c(OC)c2Br)cc(N)c1Cl` is 100

The recorded pest or weed control at 140 g/ha for `COC(=O)c1nc(-c2ccc(Cl)c(C(=O)C(F)(F)F)c2F)cc(N)c1Cl` is 100

The recorded pest or weed control at 140 g/ha for `COC(=O)c1nc(-c2ccc3c(c2F)OCO3)cc(N)c1Cl` is 100

The recorded pest or weed control at 140 g/ha for `Cc1c(Cl)ccc(-c2cc(N)c(Cl)c(C(=O)O)n2)c1Cl` is 70

The recorded pest or weed control at 140 g/ha for `COC(=O)c1nc(-c2c(F)cc(Cl)c(OC)c2F)cc(N)c1Cl` is 100

The recorded pest or weed control at 140 g/ha for `COCOc1c(Cl)ccc(-c2cc(N)c(Cl)c(C(=O)OC)n2)c1F` is 100

The recorded pest or weed control at 140 g/ha for `COC(=O)c1nc(-c2c(F)cc(F)c(C(F)F)c2F)cc(N)c1Cl` is 100

The recorded pest or weed control at 140 g/ha for `COCc1c(Cl)ccc(-c2cc(N)c(Cl)c(C(=O)OC)n2)c1F` is 100

The recorded pest or weed control at 140 g/ha for `CNc1c(Cl)ccc(-c2cc(N)c(Cl)c(C(=O)OC)n2)c1F` is 100

The recorded pest or weed control at 140 g/ha for `COc1c(Br)ccc(-c2cc(N)c(Cl)c(C(=O)O)n2)c1F` is 90

The recorded pest or weed control at 140 g/ha for `COC(=O)c1nc(-c2ccc(Br)c(OC)c2F)cc(N)c1Cl` is 90

The recorded pest or weed control at 140 g/ha for `COC(=O)c1nc(-c2c(F)cc(Cl)c(N(C)C)c2F)cc(N)c1Cl` is 100

The recorded pest or weed control at 140 g/ha for `COC(=O)c1nc(-c2ccc(Cl)c(C(F)F)c2Cl)cc(NC(C)=O)c1Cl` is 90

The recorded pest or weed control at 140 g/ha for `CN(C)c1c(Cl)cc(F)c(-c2cc(N)c(Cl)c(C(=O)O)n2)c1F` is 100

The recorded pest or weed control at 140 g/ha for `CCN(CC)c1c(Cl)ccc(-c2cc(N)c(Cl)c(C(=O)OC)n2)c1F` is 100

* * *

- System: Scirpus juncoides
- assay_comment: Herbicidal activity in transplanted paddy rice
- Format: in vivo
- assay_context: Schoenoplectiella juncoides, 504 h; paddy water application, 17.5 g ai/ha, after 3 weeks; read-out: % Control SCPJU
reported_metric: pest or weed control at 17.5 g/ha
Param answer (str): number followed by unit.

The recorded pest or weed control at 17.5 g/ha for COC(=O)c1nc(-c2c(F)cc(Cl)c(OC)c2F)cc(N)c1Cl [Compound 58] is 50%

The recorded pest or weed control at 17.5 g/ha for CCCCOCCOC(=O)c1nc(-c2ccc(Cl)c(OC)c2F)cc(N)c1Cl [Compound 92] is 90%

The recorded pest or weed control at 17.5 g/ha for COC(=O)c1nc(-c2ccc(Cl)c(C(F)F)c2F)cc(N)c1Cl [Compound 4] is 70%

The recorded pest or weed control at 17.5 g/ha for COc1c(Cl)ccc(-c2cc(N)c(Cl)c(C(=O)O)n2)c1F [Compound 100] is 80%

The recorded pest or weed control at 17.5 g/ha for COC(=O)c1nc(-c2ccc(Br)c(OC)c2F)cc(N)c1Cl [Compound 27] is 99%

The recorded pest or weed control at 17.5 g/ha for COC(=O)c1nc(-c2ccc(Cl)c(OC)c2F)cc(N)c1Cl [Compound 42] is 90%

The recorded pest or weed control at 17.5 g/ha for CCOc1c(Cl)ccc(-c2cc(N)c(Cl)c(C(=O)OC)n2)c1F [Compound 41] is 90%

The recorded pest or weed control at 17.5 g/ha for CCCCOC(=O)c1nc(-c2ccc(Br)c(OC)c2F)cc(N)c1Cl [Compound 90] is 90%

* * *

Task for the reader: assign each of the following compounds its reported melting point.

The recorded melting point for `CN(C)c1c(Cl)ccc(-c2cc(N)c(Cl)c(C(=O)O)n2)c1Cl` is 177 to 178 °C

The recorded melting point for CC(F)c1c(Cl)ccc(-c2cc(N)cc(C(=O)O)n2)c1Cl (stereo not shown) is 169 to 170 °C (dec.)

The recorded melting point for `COc1c(Br)ccc(-c2cc(N)c(Cl)c(C(=O)O)n2)c1Cl` is 192 to 193 °C

The recorded melting point for `COC(=O)c1nc(-c2ccc(Cl)c(C#N)c2F)cc(N)c1Cl` is 189 to 190 °C

The recorded melting point for `COC(=O)c1nc(-c2ccc(Cl)c(OC(F)F)c2F)cc(N)c1Cl` is 164 °C

The recorded melting point for `COC(=O)c1nc(-c2ccc(F)c(OC)c2Cl)cc(N)c1Cl` is 145 to 146 °C

The recorded melting point for `Nc1cc(-c2ccc3c(c2F)OCO3)nc(C(=O)O)c1Cl` is 202 to 203 °C (dec.)

The recorded melting point for `COC(=O)c1nc(-c2cc(OC)c(Cl)cc2F)c(F)c(N)c1Cl` is 168 to 169 °C

The recorded melting point for `COC(=O)c1nc(-c2ccc3c(c2F)OCO3)c(F)c(N)c1Cl` is 151 to 152 °C

The recorded melting point for `CCOc1c(Cl)ccc(-c2cc(N)c(Cl)c(C(=O)O)n2)c1F` is 177 to 178 °C (dec.)

The recorded melting point for `COC(=O)c1nc(-c2ccc3c(c2F)OCO3)cc(N)c1Cl` is 139 to 141 °C

The recorded melting point for `COCc1c(Cl)ccc(-c2cc(N)c(Cl)c(C(=O)O)n2)c1F` is 187 to 188 °C (dec.)

The recorded melting point for `COC(=O)c1nc(-c2ccc(Br)c(OC)c2Cl)cc(N)c1Cl` is 154 to 155 °C

The recorded melting point for `COC(=O)c1nc(-c2cc(OC)c(F)cc2F)cc(N)c1Cl` is 128 to 130 °C

The recorded melting point for `COC(=O)c1nc(-c2ccc(C(F)(F)F)c(OC)c2F)cc(N)c1Cl` is 144 to 146 °C

The recorded melting point for `COC(=O)c1nc(-c2ccc(Cl)c(OC)c2Cl)cc(N)c1Cl` is 168 to 170 °C

The recorded melting point for `COCOc1c(Cl)ccc(-c2cc(N)c(Cl)c(C(=O)OC)n2)c1F` is 99 °C

The recorded melting point for `COc1cc(-c2nc(C(=O)O)c(Cl)c(N)c2F)c(F)cc1Cl` is 180 to 181 °C

The recorded melting point for `COC(=O)c1nc(-c2cc(OC)c(Cl)cc2F)cc(NC(C)=O)c1Cl` is 180 to 182 °C
